// provenance: PubChem BioAssay (NCI)

System: A498 renal
Method description: NCI-60 one-dose screen, 48 h (100 = growth as untreated, 0 = no growth, -100 = all killed)
Condition info: 10 µM
About 83,000 compounds went through this panel and 20% of them were active in at least one assay; those are over-represented in the sample as a whole.
Each entry falls in a class defined on growth; the bands are c1 = under 50%, c2 = from 50% up to 90%, c3 = 90% and over

# count of solved cases: 5
Fc1ccc(-c2cc(C(Cl)Cl)no2)cc1: c3
COc1ccc(Cn2cc3c(c2-c2cc(OC)c(OC)c(OC)c2)CCc2cnoc2-3)cc1[N+](=O)[O-]: c1
Nc1nc(SCC#CCCl)c2[nH]cnc2n1: c2
Cn1cnc([N+](=O)[O-])c1/C=C1\Oc2ccc(Cl)cc2C1=O: c3
CCOC(=O)c1ccc(N(C=O)CCC(=O)CCl)cc1: c1

Consider "Cc1nc2cc(-n3c(-c4ccc(F)cc4)nc4ccccc4c3=O)ccc2n1Cc1ccccc1" . To which growth class does it belong?
c1

Consider "C=CCn1c(C)nc2cc(Nc3nc(Nc4ccc5nc(C)n(CC=C)c5c4)c4ccccc4n3)ccc21" . To which growth class does it belong?
c1

Consider "O=C1CC[C@@H](C(=O)N[C@H]2CSSC[C@@H](C(=O)N/C=C/c3ccc(O)cc3)NC(=O)[C@H](Cc3ccccc3)NC(=O)[C@@H]3CCCN3C(=O)[C@@H]3CCCN3C2=O)N1" . To which growth class does it belong?
c3

Consider "CCn1nc(-c2ccc(C(=O)OC)cc2)nc2c(=O)n(C)c(=O)nc1-2" . To which growth class does it belong?
c3

Consider CC(CNC(Cc1ccccc1)c1ccccc1)NC(Cc1ccccc1)c1ccccc1 (stereo not given) . To which growth class does it belong?
c2

====

System: HS 578T breast
Method description: NCI-60 one-dose screen, 48 h
Condition info: 10 µM
Experimental: Growth inhibition of the HS 578T human tumor cell line is measured as a screen for anti-cancer activity. Cells are grown in 96 well plates and exposed to the test compound for 48 hours. Compounds are tested at a single concentration, which is 10^-5 M for most compounds. The reported endpoint is percent growth (GI% or GIPRCNT), where numbers from 0 - 100% represent growth inhibition, and numbers from -100% - 0 represent cell death. For example, a value of 40 represents 60% growth inhibition. […]
About 83,000 compounds went through this panel and 20% of them were active in at least one assay; those are over-represented in the sample as a whole. Calls of active or inactive are those of the source. The calls were made as follows: active = growth percent below 10; inactive = the rest.
Would you mind answering with one of these outcomes? class 1 (active), class 0 (inactive)

# count of solved cases: 2
CCN1CCOC1C(C)C (stereo not given): class 0
COC(=O)C1(C(=O)OC)C2C(=O)C3C(C21)C3(C(=O)OC(C)(C)C)C(=O)OC(C)(C)C (stereo not given): class 0

Write down the call the test reported for this molecule. Item: "CN1CCN(c2nc(-c3cccnc3)nc3sc4c(c23)CCCCCC4)CC1"
class 0

Write down the call the test reported for this molecule. Item: "COc1cc(CSc2nc3ccc(C)cc3c(=O)n2Cc2ccccc2)cc(OC)c1OC"
class 0

Write down the call the test reported for this molecule. Item: "COc1cc(-c2nc3ccc(C)cc3[nH]2)ccc1OCC(=O)N=Nc1c(O)[nH]c2ccccc12"
class 1

====

# key: entry, value: growth
Test system: SK-MEL-5 melanoma
Method description: NCI-60 one-dose screen, 48 h (100 = growth as untreated, 0 = no growth, -100 = all killed)
Condition info: 10 µM
About 83,000 compounds went through this panel and 20% of them were active in at least one assay; those are over-represented in the sample as a whole.
Output spec: scalar in %, unitless text.

Look over these answered cases.
COC(=O)[C@]12CC[C@@H](C)[C@H](C)[C@@H]1C1=CC[C@@H]3[C@@]4(C)C[C@@H](O)[C@H](O)[C@@](C)(CO)[C@@H]4[C@H](O)C[C@@]3(C)[C@]1(C)CC2: -95.8
CN1/C(=C\C(I)C(I)C2=[N+](C)c3ccccc3C2(C)C)C(C)(C)c2ccccc21 (stereo not given): -97.4
O=C/C=C/c1ccc([N+](=O)[O-])cc1Cl: 100
CCC(CCNc1cc(OC)cc2cccnc12)CN1C(=O)c2ccccc2C1=O (stereo not given): 105
COc1cc(OC)cc(N2CCN(C(=O)Nc3nc4cc(F)ccc4nc3OC)CC2)c1: -42.2
CCCCCCN=C(N)CCCCCCCCCCC(N)=NCCCCCC: 20
CC[C@@]1(C(N)=O)CC2C=CC1C2 (stereo not given in full): 106
CCc1nn2c(-c3cc(OC)c(OC)c(OC)c3)c(-c3cc(OC)c(OC)c(OC)c3)nc2s1: 89.7
O=C(NCCc1nccs1)c1cnc2c(S)cccc2c1: -22.1

--- query ---
Return reported growth; argument: "CC(C)c1[nH]nc2c(NCc3ccc(-c4ccccn4)cc3)nc(SCCN(C)C)nc12"
1.36

====

Test system: K-562 leukemia
Method description: NCI-60 one-dose screen, 48 h (100 = growth as untreated, 0 = no growth, -100 = all killed)
Condition info: 10 µM
This is part of a sample that, as a whole, favours compounds with a hit. Of some 83,000 tested, about 20% had one in any assay.
For each record, check the reported growth: if it is below 20% write yes, else write no.

# count of solved cases: 5
Cc1nc2cc(-n3c(-c4ccc(F)cc4)nc4ccccc4c3=O)ccc2n1Cc1ccccc1: yes
N#Cc1ccc(-n2cnc(NC(=O)[C@H]3CCN(C#N)C3)c2)cc1: yes
Cc1ccc2c3c(cccc13)-c1ccccc1C2=O: no
O=[N+]([O-])c1ccc(-c2nc(Cl)c3c(n2)CCCC3)o1: no
COc1ccc2c(=O)cc(C(Cl)(Cl)Cl)oc2c1: yes

Below: the item to evaluate.
Could you please tell me whether growth recorded for "Cc1nnc2c3nnc(-c4ccc(Cl)cc4)n3c3ccccc3n12" is less than 20%?
no

====

Tested on: MALME-3M melanoma
Method description: NCI-60 one-dose screen, 48 h (100 = growth as untreated, 0 = no growth, -100 = all killed)
Condition info: 10 µM
Compounds without any hit were thinned out: in the full panel of roughly 83,000, 20% have a hit.
For each record, check the reported growth: if it is below 80% write yes, else write no.

# count of solved cases: 5
COc1ccc2oc(=O)cc(C3c4ccc([nH]4)C(c4cc(=O)oc5ccc(OC)cc45)c4ccc([nH]4)C(c4cc(=O)oc5ccc(OC)cc45)c4ccc([nH]4)C(c4cc(=O)oc5ccc(OC)cc45)c4ccc3[nH]4)c2c1 (stereo unspecified): yes
Nc1nsc(C(=O)c2ccc(O)cc2)n1: no
CCCCCCCCCCCC(=O)NCCCN(C)C: no
CCCOCC(O)CNCCN (stereo unspecified): no
CC(C)c1[nH]nc2c(NCc3ccc(-c4ccccn4)cc3)nc(SCCN(C)C)nc12: yes

Could you please tell me whether growth recorded for "O=C(Nc1cccc(F)c1)Nc1cccc(Cl)c1" is less than 80%?
no

Could you please tell me whether growth recorded for "COc1ccc(Nc2ccnc(N3CCN(c4ccnc5cc(Cl)ccc45)CC3)n2)cc1" is less than 80%?
yes

Could you please tell me whether growth recorded for "CS(=O)(=O)Nc1ccc([N+](=O)[O-])cc1Oc1ccccc1" is less than 80%?
no

Could you please tell me whether growth recorded for "CCCCCCCCCCCCCCCCCBr" is less than 80%?
no

Could you please tell me whether growth recorded for "O=C(Nc1cccc(C(F)(F)F)c1)C(Cl)Cl" is less than 80%?
no

====

Test system: NCI-H322M lung
Method description: NCI-60 one-dose screen, 48 h (100 = growth as untreated, 0 = no growth, -100 = all killed)
Condition info: 10 µM
The panel holds about 83,000 compounds, 20% with a hit somewhere; the sample as a whole holds those more often. Activity calls are given as the source filed them. Rule for the calls: active = growth percent below 10; inactive = the rest.
# key: entry, value: growth

Look over these answered cases.
COC(=O)C1(C(=O)OC)C2C(=O)C3C(C21)C3(C(=O)OC(C)(C)C)C(=O)OC(C)(C)C (stereo not given): 108% (inactive)
COCCOC(=O)NC(=O)Nc1ccc(C(=O)c2ccc(Cl)cc2)cc1: 57.9% (inactive)
CCN1CCN(c2nc(NNC(=O)c3cccc(OC)c3)nc(N3CCN(C(c4ccccc4)c4ccccc4)CC3)n2)CC1: 89.7% (inactive)

--- query ---
Return reported growth; argument: "COc1cc([C@@H]2c3cc4c(cc3[C@H](SC(=N)N)[C@H]3COC(=O)[C@H]23)OCO4)cc(OC)c1OC"
13% (inactive)

====

Tested on: LOX IMVI melanoma
Method description: NCI-60 one-dose screen, 48 h
Condition info: 10 µM
About 83,000 compounds went through this panel and 20% of them were active in at least one assay; those are over-represented in the sample as a whole. Active and inactive are the calls of the source. How the source made its calls: active means growth percent below 10; inactive means the rest.
Would you mind answering with one of these outcomes? active, inactive

# count of solved cases: 5
O=C(c1ccc(Cl)cc1)c1no[n+]([O-])c1C(=O)c1ccc(Cl)cc1: active
C=CCNC(=S)NN: inactive
Nc1c(CNCc2nnn(Cc3ccccc3)c2N)nnn1Cc1ccccc1: inactive
CCCCCCCCCCCCCC[n+]1ccc(C)cc1: active
O=C(O)c1ccc(CNc2ccc(C(=O)CCl)cc2)cc1: inactive

Write down the call the test reported for this molecule. Item: "Cc1cc(Cl)ccc1Nc1nc(C(F)(F)F)ccc1C(=O)N/N=C/c1ccccc1Cl"
inactive

Write down the call the test reported for this molecule. Item: "COc1ccc(-c2nc(-c3nc4ccc(OC)cc4[nH]3)c3ccccn23)cc1"
inactive

Write down the call the test reported for this molecule. Item: "O=C(N/N=C\c1cc(Cl)ccc1O)c1ccncc1"
inactive

Write down the call the test reported for this molecule. Item: "COc1cccc2c1O/C(=C\c1ncc([N+](=O)[O-])n1C)C2=O"
active
